# TARGET_ENTITY: UniProtKB P23975
# MEASUREMENT_PROTOCOL: Displacement of [3H]nisoxetine from human NET expressed in COS7 cells
# Type: cell-based
# MEASUREMENT_SETUP: COS-7
Activity calls are given as the source filed them. No cut-off for these calls is given here. Where a SMILES comes first, the peptide text is derived from it. Bridges are numbered along the chain shown (N, C = ends). [ ]: non-standard residue; d: D form. Pro(3S-OH) = O=C(O)[C@H]1NCC[C@@H]1O; pGlu = O=C1CC[C@@H](C(=O)O)N1
Possible outcomes: active, inactive

COMPOUND	ANSWER_LABEL
CC(C)C[C@@H]1NC(=O)[C@H](CCCCN)NC(=O)[C@H](Cc2ccc(O)cc2)NC(=O)CNC(=O)[C@@H]2CSSC[C@H](NC1=O)C(=O)N[C@@H](Cc1cnc[nH]1)C(=O)N[C@H](CCCCN)C(=O)N[C@H](C(=O)O)CSSC[C@H](NC(=O)[C@@H](NC(=O)CNC(=O)[C@@H]1CCC(=O)N1)C(C)C)C(=O)N2	active
CC(C)C[C@@H]1NC(=O)CNC(=O)[C@@H]2CSSC[C@H](NC(=O)[C@H](CC(C)C)NC(=O)[C@H](CCCCN)NC1=O)C(=O)N[C@@H](Cc1cnc[nH]1)C(=O)N1CC[C@H](O)[C@H]1C(=O)N[C@H](C(=O)O)CSSC[C@H](NC(=O)[C@@H](NC(=O)CNC(=O)[C@@H]1CCC(=O)N1)C(C)C)C(=O)N2 ([pGlu]GVCCGLKLCH[Pro(3S-OH)]C-OH; disulfide 4-13, 5-10)	inactive
CC(C)C[C@@H]1NC(=O)[C@H](CCCCN)NC(=O)[C@H]2CCCN2C(=O)CNC(=O)[C@@H]2CSSC[C@H](NC1=O)C(=O)N[C@@H](Cc1cnc[nH]1)C(=O)N1CC[C@H](O)[C@H]1C(=O)N[C@H](C(=O)O)CSSC[C@H](NC(=O)[C@@H](NC(=O)CNC(=O)[C@@H]1CCC(=O)N1)C(C)C)C(=O)N2	inactive

* * *

# TARGET_ENTITY: UniProt:P23975
# MEASUREMENT_PROTOCOL: Displacement of [3H]nisoxetine from human NET expressed in COS7 cells
# Assay type: cell-based
# MEASUREMENT_SETUP: COS-7
Active and inactive are the calls of the source. No cut-off for these calls is given here. Where a SMILES comes first, the peptide text is derived from it. Bridges are numbered along the chain shown (N, C = ends). [ ]: non-standard residue; d: D form. Pro(3S-OH) = O=C(O)[C@H]1NCC[C@@H]1O; pGlu = O=C1CC[C@@H](C(=O)O)N1

COMPOUND	Activity
CC(C)C[C@H]1CC(=O)N[C@H]2CSSC[C@H](NC(=O)[C@@H](NC(=O)[C@@H](NC(=O)CNC(=O)[C@@H]3CCC(=O)N3)C(C)C)CSSC[C@@H](C(=O)O)NC(=O)[C@@H]3[C@@H](O)CCN3C(=O)[C@H](Cc3cnc[nH]3)NC2=O)C(=O)NCC(=O)N[C@@H](Cc2ccc(O)cc2)C(=O)N[C@@H](CCCCN)C(=O)N1	Active
CC(C)C[C@@H]1NC(=O)[C@H](CCCCN)NC(=O)[C@H](Cc2ccc(O)cc2)NC(=O)CNC(=O)[C@@H]2CSSC[C@H](NC1=O)C(=O)N[C@@H](CCCNC(=N)N)C(=O)N1CC[C@H](O)[C@H]1C(=O)N[C@H](C(=O)O)CSSC[C@H](NC(=O)[C@@H](NC(=O)CNC(=O)[C@@H]1CCC(=O)N1)C(C)C)C(=O)N2	Active
COc1ccc(C[C@@H]2NC(=O)CNC(=O)[C@@H]3CSSC[C@H](NC(=O)[C@H](CC(C)C)NC(=O)[C@H](CCCCN)NC(=O)[C@H](Cc4ccc(O)cc4)NC2=O)C(=O)N[C@@H](Cc2c[nH]c4ccccc24)C(=O)N2CC[C@H](O)[C@H]2C(=O)N[C@H](C(=O)O)CSSC[C@H](NC(=O)[C@@H](NC(=O)CNC(=O)[C@@H]2CCC(=O)N2)C(C)C)C(=O)N3)cc1 ([pGlu]GVCCGY(Me)YKLCW[Pro(3S-OH)]C-OH; disulfide 4-14, 5-11)	Active

* * *

# Species: Rattus norvegicus
# MEASUREMENT_PROTOCOL: Toxicity in CCI rat pain model assessed as side effects
# Assay type: organism-based
# MEASUREMENT_SETUP: in vivo
MEASUREMENT_NAME: Activity

CC(C)C[C@@H]1NC(=O)[C@H](CCCCN)NC(=O)[C@H](Cc2ccc(O)cc2)NC(=O)CNC(=O)[C@@H]2CSSC[C@H](NC1=O)C(=O)N[C@@H](Cc1cnc[nH]1)C(=O)N1CC[C@H](O)[C@H]1C(=O)N[C@H](C(=O)O)CSSC[C@H](NC(=O)[C@@H](NC(=O)CNC(=O)[C@H](N)CC(N)=O)C(C)C)C(=O)N2 Toxic
CC(C)C[C@@H]1NC(=O)[C@H](CCCCN)NC(=O)[C@H](Cc2ccc(O)cc2)NC(=O)CNC(=O)[C@@H]2CSSC[C@H](NC1=O)C(=O)N[C@@H](Cc1cnc[nH]1)C(=O)N1CC[C@H](O)[C@H]1C(=O)N[C@H](C(=O)O)CSSC[C@H](NC(=O)[C@@H](NC(=O)CNC(=O)[C@H](CC(N)=O)NC(=O)[C@@H](N)CCc1ccccc1)C(C)C)C(=O)N2 Toxic
CC(C)C[C@@H]1NC(=O)[C@H](CCCCN)NC(=O)[C@H](Cc2ccc(O)cc2)NC(=O)CNC(=O)[C@@H]2CSSC[C@H](NC1=O)C(=O)N[C@@H](Cc1cnc[nH]1)C(=O)N1CC[C@H](O)[C@H]1C(=O)N[C@H](C(=O)O)CSSC[C@H](NC(=O)[C@@H](NC(=O)CNC(=O)[C@@H]1CCC(=O)N1)C(C)C)C(=O)N2 Toxic
CC(C)C[C@@H]1NC(=O)[C@H](CCCCN)NC(=O)[C@H](Cc2ccc(O)cc2)NC(=O)CNC(=O)[C@@H]2CSSC[C@H](NC1=O)C(=O)N[C@@H](Cc1cnc[nH]1)C(=O)N1CC[C@H](O)[C@H]1C(=O)N[C@H](C(=O)O)CSSC[C@H](NC(=O)[C@@H](NC(=O)CNC(=O)[C@H](CC(N)=O)NC(=O)[C@@H](N)Cc1c[nH]c3ccccc13)C(C)C)C(=O)N2 Toxic
CCCC[C@H](N)C(=O)NCC(=O)N[C@H](C(=O)N[C@H]1CSSC[C@@H](C(=O)O)NC(=O)[C@@H]2[C@@H](O)CCN2C(=O)[C@H](Cc2cnc[nH]2)NC(=O)[C@@H]2CSSC[C@H](NC1=O)C(=O)NCC(=O)N[C@@H](Cc1ccc(O)cc1)C(=O)N[C@@H](CCCCN)C(=O)N[C@@H](CC(C)C)C(=O)N2)C(C)C Toxic
CC(C)C[C@@H]1NC(=O)[C@H](CCCCN)NC(=O)[C@H](Cc2ccc(O)cc2)NC(=O)CNC(=O)[C@@H]2CSSC[C@H](NC1=O)C(=O)N[C@@H](Cc1cnc[nH]1)C(=O)N1CC[C@H](O)[C@H]1C(=O)N[C@H](C(=O)O)CSSC[C@H](NC(=O)[C@@H](NC(=O)CNC(=O)[C@H](N)CCCNC(=N)N)C(C)C)C(=O)N2 Toxic

* * *

# TARGET_ENTITY: Sodium-dependent noradrenaline transporter (Homo sapiens, UniProt P23975)
# Sequence (P23975 whole entry): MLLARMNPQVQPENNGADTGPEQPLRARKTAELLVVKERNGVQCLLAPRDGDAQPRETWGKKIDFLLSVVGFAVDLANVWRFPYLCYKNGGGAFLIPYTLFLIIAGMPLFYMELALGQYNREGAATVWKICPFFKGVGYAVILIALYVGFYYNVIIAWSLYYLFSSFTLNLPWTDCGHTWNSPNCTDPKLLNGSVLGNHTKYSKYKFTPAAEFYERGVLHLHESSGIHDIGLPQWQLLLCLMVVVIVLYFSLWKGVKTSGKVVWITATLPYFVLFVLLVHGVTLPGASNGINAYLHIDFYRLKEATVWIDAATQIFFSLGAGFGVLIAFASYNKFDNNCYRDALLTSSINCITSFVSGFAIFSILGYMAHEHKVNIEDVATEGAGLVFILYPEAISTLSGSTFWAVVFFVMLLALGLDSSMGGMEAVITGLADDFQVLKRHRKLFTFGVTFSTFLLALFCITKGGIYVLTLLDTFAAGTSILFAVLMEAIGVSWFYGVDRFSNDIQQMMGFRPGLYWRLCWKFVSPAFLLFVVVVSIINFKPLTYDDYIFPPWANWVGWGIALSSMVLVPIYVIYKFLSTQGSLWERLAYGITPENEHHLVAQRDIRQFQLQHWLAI
# MEASUREMENT_PROTOCOL: Displacement of [3H]nisoxetine from human NET expressed in COS7 cells
# Assay type: cell-based
# MEASUREMENT_SETUP: COS-7
The source made the active and inactive calls. No cut-off for these calls is given here. Where a SMILES comes first, the peptide text is derived from it. Bridges are numbered along the chain shown (N, C = ends). [ ]: non-standard residue; d: D form. Pro(3S-OH) = O=C(O)[C@H]1NCC[C@@H]1O; pGlu = O=C1CC[C@@H](C(=O)O)N1
Possible outcomes: active, inactive

COMPOUND	ANSWER_LABEL
CCCC[C@@H]1NC(=O)[C@H](CCCCN)NC(=O)[C@H](Cc2ccc(O)cc2)NC(=O)CNC(=O)[C@@H]2CSSC[C@H](NC1=O)C(=O)N[C@@H](Cc1cnc[nH]1)C(=O)N1CC[C@H](O)[C@H]1C(=O)N[C@H](C(=O)O)CSSC[C@H](NC(=O)[C@@H](NC(=O)CNC(=O)[C@@H]1CCC(=O)N1)C(C)C)C(=O)N2	active
CC(C)C[C@@H]1NC(=O)[C@H](CCCCN)NC(=O)[C@H](Cc2ccc(O)cc2)NC(=O)CNC(=O)[C@@H]2CSSC[C@H](NC1=O)C(=O)N[C@@H](Cc1cnc[nH]1)C(=O)N1CC[C@H](O)[C@H]1C(=O)N[C@H](C(=O)O)CSSC[C@@H](NC(=O)[C@@H](NC(=O)CNC(=O)[C@@H]1CCC(=O)N1)C(C)C)C(=O)N2	inactive
CC(C)C[C@@H]1NC(=O)[C@H](CCCCN)NC(=O)[C@H](Cc2ccc(O)cc2)NC(=O)CNC(=O)[C@@H]2CSSC[C@H](NC1=O)C(=O)N[C@@H](Cc1cccnc1)C(=O)N1CC[C@H](O)[C@H]1C(=O)N[C@H](C(=O)O)CSSC[C@H](NC(=O)[C@@H](NC(=O)CNC(=O)[C@@H]1CCC(=O)N1)C(C)C)C(=O)N2	active
CC[C@H](C)[C@@H]1NC(=O)CNC(=O)[C@@H]2CSSC[C@H](NC(=O)[C@H](CC(C)C)NC(=O)[C@H](CCCCN)NC1=O)C(=O)N[C@@H](Cc1cnc[nH]1)C(=O)N1CC[C@H](O)[C@H]1C(=O)N[C@H](C(=O)O)CSSC[C@H](NC(=O)[C@@H](NC(=O)CNC(=O)[C@@H]1CCC(=O)N1)C(C)C)C(=O)N2	inactive
CC(C)C[C@@H]1NC(=O)[C@H](CCCCN)NC(=O)[C@H](Cc2ccc(O)cc2)NC(=O)CNC(=O)[C@@H]2CSSC[C@H](NC1=O)C(=O)N[C@@H](Cc1c[nH]c3ccccc13)C(=O)N1CC[C@H](O)[C@H]1C(=O)N[C@H](C(=O)O)CSSC[C@H](NC(=O)[C@@H](NC(=O)CNC(=O)[C@@H]1CCC(=O)N1)C(C)C)C(=O)N2 ([pGlu]GVCCGYKLCW[Pro(3S-OH)]C-OH; disulfide 4-13, 5-10)	active
CC(C)C[C@@H]1NC(=O)[C@H](CCCCN)NC(=O)[C@H](Cc2ccccc2)NC(=O)CNC(=O)[C@@H]2CSSC[C@H](NC1=O)C(=O)N[C@@H](Cc1cnc[nH]1)C(=O)N1CC[C@H](O)[C@H]1C(=O)N[C@H](C(=O)O)CSSC[C@H](NC(=O)[C@@H](NC(=O)CNC(=O)[C@@H]1CCC(=O)N1)C(C)C)C(=O)N2 ([pGlu]GVCCGFKLCH[Pro(3S-OH)]C-OH; disulfide 4-13, 5-10)	inactive
